Hello, the source for this data is patent US20250144067A1, in case you need it.

Tested on: NCI-H292 lung cancer cells
measurement.description: FDA drug screening, complete media vs cholesterol-free media with simvastatin (TABLE 2)
Assay type: cell-based, human
run.parameters: NCI-H292 cells, drug in complete media
Structures can show the parent of a compound that is named as a salt.
Recorded Complete Media, one value per entry.
Output: the number by itself.

# compound, parameter.measured, experimental.value
rows = [
    ("CC[C@H]1OC(=O)[C@H](C)[C@@H](O[C@H]2C[C@@](C)(OC)[C@@H](O)[C@H](C)O2)[C@H](C)[C@@H](O[C@@H]2O[C@H](C)C[C@H](N(C)C)[C@H]2O)[C@](C)(O)C[C@@H](C)CN(C)[C@H](C)[C@@H](O)[C@]1(C)O [Azithromycin]", "Complete Media", 1.162),
    ("CC1(C)S[C@@H]2[C@H](NC(=O)[C@H](N)c3ccc(O)cc3)C(=O)N2[C@H]1C(=O)[O-].[Na+] [Amoxicillin (sodium)]", "Complete Media", 0.759),
    ("Nc1nc(N)nc(-c2cc(Cl)ccc2Cl)n1 [Irsogladine]", "Complete Media", 0.995),
    ("CC(=O)Oc1cc(C(C)C)c(OCCN(C)C)cc1C [Moxisylyte (hydrochloride)]", "Complete Media", 1.071),
    ("CC(=O)Oc1cc2c(s1)CCN(C(C(=O)C1CC1)c1ccccc1F)C2 (stereo not shown) [Prasugrel (hydrochloride)]", "Complete Media", 1.05),
    ("CC1COc2c(N3CCN(C)CC3)c(F)cc3c(=O)c(C(=O)O)cn1c23 (stereo not shown) [Ofloxacin]", "Complete Media", 0.9389),
]

Name the recorded Complete Media for O[C@H]([C@H](O)[C@@H]1CO1)[C@H]1CO1 [VAL-083] .
0.7017

###

Recorded Cholesterol-free media + simvastatin (0.04 μM), one value per entry.
Test system: NCI-H292 lung cancer cells
measurement.description: FDA drug screening, complete media vs cholesterol-free media with simvastatin (TABLE 2)
Type: cell-based, human
run.parameters: NCI-H292 cells, cholesterol-free media with simvastatin 0.04 μM; FDA drug library screen (TABLE 2)

# molecule, experimental.value
measured = [
    ("Cc1[nH]c2ccccc2c1CCNCc1ccc(/C=C/C(=O)NO)cc1", 0.008426),
    ("CC(O)C(=O)O.CCOc1ccc2nc3cc(N)ccc3c(N)c2c1.O [Ethacridine (lactate monohydrate)]", 0.1737),
    ("C[C@H](CS)C(=O)N1CCC[C@H]1C(=O)O", 0.8354),
    ("Nc1nc(O)c2ncn(COC(CO)CO)c2n1", 0.88),
]

Please examine the following record next.
Name the recorded Cholesterol-free media + simvastatin (0.04 μM) for Nc1nc2nc[nH]c2c(=S)[nH]1 .
0.7013

###

Recorded Difference, one value per entry.
System: NCI-H292 lung cancer cells
measurement.description: FDA drug screening, complete media vs cholesterol-free media with simvastatin (TABLE 2)
Format: cell-based, human
run.parameters: complete media vs cholesterol-free media + simvastatin (0.04 μM); >0 enhanced anti-cancer activity, about 0 neutral, <0 antagonist
Counter-ions that a name gives are not always drawn.
Output: the number by itself.

Worked examples follow.
# compound, target.entity, Difference
measured = [
    ("NC(=O)c1ncn([C@@H]2O[C@H](CO)[C@@H](O)[C@H]2O)n1", "NCI-H292 lung cancer cells", "−0.24"),
    ("CC(C)CN(C[C@@H](OP(=O)(O)O)[C@H](Cc1ccccc1)NC(=O)O[C@H]1CCOC1)S(=O)(=O)c1ccc(N)cc1", "NCI-H292 lung cancer cells", "−0.07"),
    ("CN(Cc1cc(Br)cc(Br)c1N)C1CCCCC1 [Bromhexine (hydrochloride)]", "NCI-H292 lung cancer cells", "−0.29"),
    ("O=c1cc[nH]c(=O)[nH]1", "NCI-H292 lung cancer cells", "−0.31"),
]

Name the recorded Difference for O=C(O)/C=C/C(=O)O .
−0.28
